- ASSAYED TARGET: T1, soluble human CD3 epsilon chain (human, UniProt P07766 23-126)
- T1 construct: also called CD3ε
- T1 sequence (P07766 23-126 limits assumed): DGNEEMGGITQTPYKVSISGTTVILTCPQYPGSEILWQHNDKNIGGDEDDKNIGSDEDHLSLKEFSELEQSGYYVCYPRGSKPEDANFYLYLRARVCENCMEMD
- EXPERIMENT: SPR
Kd reference

BINDER	RESULT
TR01H019-E22Hh/none-Hi-Kn010G3/L0000-k0 (antibody, V domains shown, one-arm) VH: QVQLVESGGGLVQPGRSLRLSCAASGFTFSNAWMHWVRQAPGKGLEWVAQIKGKSQNYATYYAESVKGRFTISRADSKNSIYLQMNSLKTEDTAVYYCRYVHYSASYGVDIWGQGTTVTVSS VL: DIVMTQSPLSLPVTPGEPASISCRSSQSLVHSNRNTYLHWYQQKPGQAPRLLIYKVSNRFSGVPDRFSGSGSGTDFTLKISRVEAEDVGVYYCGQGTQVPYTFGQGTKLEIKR	68.5 nM
TR01H083-E22Hh/none-Hi-Kn010G3/L0011-k0 (antibody, V domains shown, one-arm) VH: QVQLVESGGGLVQPGRSLRLSCAASGFTFSNAWMHWVRQAPGKGLEWVAQIKDKSNNYATYYAESVKGRFTISRADSKNSIYLQMNSLKTEDTAVYYCRYVHYAAGYGVDIWGQGTTVTVSS VL: DIVMTQSPLSLPVTPGEPASISCRSSQPLVHSNRNTYLHWYQQKPGQAPRLLIYKVSNRFSGVPDRFSGSGSGTDFTLKISRVEAEDVGVYYCGQGTQVPYTFGQGTKLEIKR	6.7 nM
CE115HA179-G1dh//-Hi-Kn010G3/L0000-k0 (antibody, V domains shown, one-arm) VH: QVQLVESGGGLVQPGRSLRLSCAASGFTFSNAWMHWVRQAPGKGLEWVAQIKAKSNNYATYYAESVKGRFTISRADSKNSIYLQMNSLKTEDTAVYYCRYVHYGAYYGVQAWGQGTTVTVSS VL: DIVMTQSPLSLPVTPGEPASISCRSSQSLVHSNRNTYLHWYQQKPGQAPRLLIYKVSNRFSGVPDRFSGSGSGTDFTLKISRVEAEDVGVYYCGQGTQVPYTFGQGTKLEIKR	8.35 nM
TR01H053-E22Hh/none-Hi-Kn010G3/L0000-k0 (antibody, V domains shown, one-arm) VH: QVQLVESGGGLVQPGRSLRLSCAASGFTFSNAWMHWVRQAPGKGLEWVAQIKDKSQNYATYYAESVKGRFTISRADSKNSLYLQMNSLKTEDTAVYYCRYVHYSASYGVDAWGQGTTVTVSS VL: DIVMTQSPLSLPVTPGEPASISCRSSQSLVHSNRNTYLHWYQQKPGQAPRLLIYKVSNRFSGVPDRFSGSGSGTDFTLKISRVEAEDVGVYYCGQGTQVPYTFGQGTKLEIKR	82.3 nM
TR01H036-E22Hh/none-Hi-Kn010G3/L0000-k0 (antibody, V domains shown, one-arm) VH: QVQLVESGGGLVQPGRSLRLSCAASGFTFSNAWMHWVRQAPGKGLEWVAQIKGKSNNYATYYAESVKGRFTISRADSKNSIYLQMNSLKTEDTAVYYCRYVHYSASYGVDYWGQGTTVTVSS VL: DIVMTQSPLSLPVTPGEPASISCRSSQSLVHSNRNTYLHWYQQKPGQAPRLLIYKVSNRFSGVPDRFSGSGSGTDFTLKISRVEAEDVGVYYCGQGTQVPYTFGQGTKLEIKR	65 nM
TR01H069-E22Hh/none-Hi-Kn010G3/L0000-k0 (antibody, V domains shown, one-arm) VH: QVQLVESGGGVVQPGGSLRLSCAASGFTFSNAWMHWVRQAPGKGLEWVAQIKDKSQNYATYYAESVKGRFTISRDDSKNSLYLQMNSLKTEDTAVYYCRYVHYAASYGVDIWGQGTTVTVSS VL: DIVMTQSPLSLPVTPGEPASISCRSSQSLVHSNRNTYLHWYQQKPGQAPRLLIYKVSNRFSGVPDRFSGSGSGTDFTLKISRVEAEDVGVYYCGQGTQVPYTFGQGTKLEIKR	71.1 nM
TR01H082-E22Hh/none-Hi-Kn010G3/TR01L023-k0 (antibody, V domains shown, one-arm) VH: QVQLVESGGGLVQPGRSLRLSCAASGFTFSNAWMHWVRQAPGKGLEWVAQIKDKSQNYATYYAESVKGRFTISRDDSKNSLYLQMNSLKTEDTAVYYCRYVHYAAGYGVDAWGQGTTVTVSS VL: DIVMTQSPLSLPVTPGEPASISCRSSQSPVHSNRNTYLHWYLQKPGQSPQLLIYKVSNRFSGVPDRFSGSGSGTDFTLKISRVEAEDVGVYYCTQGTQVPYTFGQGTKLEIK	42.5 nM
TR01H090-E22Hh/none-Hi-Kn010G3/L0011-k0 (antibody, V domains shown, one-arm) VH: QVQLVESGGGLVQPGGSLRLSCAASGFTFSNAWMHWVRQAPGKGLEWVAQIKDKSQNYATYYAESVKGRFTISRDDSKNSLYLQMNSLKTEDTAVYYCRYVHYAAGYGVDAWGQGTTVTVSS VL: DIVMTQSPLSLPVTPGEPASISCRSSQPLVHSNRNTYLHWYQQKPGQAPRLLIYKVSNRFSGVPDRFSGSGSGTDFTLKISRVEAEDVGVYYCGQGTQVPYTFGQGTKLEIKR	69.5 nM
TR01H067-E22Hh/none-Hi-Kn010G3/L0222-k0 (antibody, V domains shown, one-arm) VH: QVQLVESGGGLVQPGRSLRLSCAASGFTFSNAWMHWVRQAPGKGLEWVAQIKDKSQNYATYYAESVKGRFTISRDDSKNSLYLQMNSLKTEDTAVYYCRYVHYAASYGVDAWGQGTTVTVSS VL: DIVMTQSPLSLPVTPGEPASISCRSSQSPVHSNRNTYIQWYQQKPGQAPRLLIYKVSNRFSGVPDRFSGSGSGTDFTLKISRVEAEDVGVYYCYQGTQVPYTFGQGTKLEIKR	76.3 nM

Enquiry: Given the entry rCE115H-E22Hh/none-Hi-Kn010G3/L0000-k0 (antibody, human IgG1, kappa, L234A L235A, N297A, V domains shown, one-arm) VH: EVQLVETGGSLVQPGKSLKLTCATSGFTFSNAWMHWVRQSPEKQLEWVAQIKAKSNNYATYYAESVKGRFTISRDDSKSNIYLQMNSLKEEDTAVYYCRYVHYGAYYGVDAWGQGTSVTVSS VL: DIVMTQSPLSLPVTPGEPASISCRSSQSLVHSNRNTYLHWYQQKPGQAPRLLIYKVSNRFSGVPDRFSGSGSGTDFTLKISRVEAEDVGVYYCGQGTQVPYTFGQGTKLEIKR , report its measured Kd.
Return: 80 nM

From: patent US20250066503A1
